Test: Pharmacokinetics of topotecan in mice with or without Ac15(Az8)2
Format: in vivo
Conditions: female, Balb/c, mouse, plasma, ip, 2 mg/kg, topotecan 2 mg/kg I.P., Ac15(Az8)2 0 mg/kg (solvent); read-out: Half-life (E-phase) of topotecan (converted)
measured_property: half-life (min)
# number only, unit min dropped from output

// query Look up half-life of "CC[C@@]1(O)C(=O)OCc2c1cc1n(c2=O)Cc2cc3c(CN(C)C)c(O)ccc3nc2-1" and report it.
// result 78

###

Assay: Pharmacokinetics of topotecan in mice with or without Ac15(Az8)2
Assay type: in vivo
Details: female, Balb/c, mouse, plasma, ip, 2 mg/kg, topotecan 2 mg/kg I.P., Ac15(Az8)2 0 mg/kg (solvent)
measured_property: Cmax (ng/mL)
Express it in ng/mL; write the number only.

// query Answer with the recorded Cmax of "CC[C@@]1(O)C(=O)OCc2c1cc1n(c2=O)Cc2cc3c(CN(C)C)c(O)ccc3nc2-1" only.
// result 2900

###

Assay: Pharmacokinetics of topotecan in mice with or without Ac15(Az8)2
Format: in vivo
Conditions: female, Balb/c, mouse, plasma, ip, 2 mg/kg, topotecan 2 mg/kg I.P., 45 mg/kg Ac15(Az8)2 I.P. one hour prior
measured_property: AUC(0-inf) (ng·h/mL)
Note: unit ng·h/mL is implicit; provide only the numeric part.

// query Please supply the value of reported AUC(0-inf) for the item "CC[C@@]1(O)C(=O)OCc2c1cc1n(c2=O)Cc2cc3c(CN(C)C)c(O)ccc3nc2-1"
// result 8700
